Known pIC50 of a selection of compounds
# assay.system: MK-2 (Homo sapiens)
# Sequence (P49137 whole entry, species assumed): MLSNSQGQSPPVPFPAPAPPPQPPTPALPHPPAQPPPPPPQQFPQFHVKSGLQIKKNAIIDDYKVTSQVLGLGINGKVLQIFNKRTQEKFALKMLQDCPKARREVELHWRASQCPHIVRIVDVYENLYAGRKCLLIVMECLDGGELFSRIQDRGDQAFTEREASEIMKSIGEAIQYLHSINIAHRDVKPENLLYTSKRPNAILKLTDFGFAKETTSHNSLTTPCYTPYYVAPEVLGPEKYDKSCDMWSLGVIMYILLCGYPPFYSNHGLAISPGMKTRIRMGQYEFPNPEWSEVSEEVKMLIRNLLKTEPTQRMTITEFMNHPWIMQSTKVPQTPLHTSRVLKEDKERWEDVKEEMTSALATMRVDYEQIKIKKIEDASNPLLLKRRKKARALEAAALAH
# assay.protocol: Determination of MK-2 IC50 (phosphorylation of HSP-peptide, anion exchange resin capture assay)
# Assay type: biochemical
# condition.parameters: additional values are replicate IC50 experiments; mixture of stereoisomers implied unless otherwise noted; read-out: MK-2 Avg. IC50
pIC50: −log10 of the molar value. Structures can show the parent of a compound that is named as a salt.

# compound, pIC50
data = [
    ("CCOc1cc([N+](=O)[O-])c2[nH]c3c(c2c1)CCNC3=O [Example 255]", "< 3.70"),
    ("O=C1NCCc2c1[nH]c1c(Br)cc3c(c21)OCCO3 [Example 256]", "< 3.70"),
    ("COc1ccc2[nH]c3c(c2c1)CCNC3C(N)=O (stereo not shown) [Example 220]", "< 3.70"),
    ("COC(=O)CC1CC2(C(=O)OC)c3[nH]c4ccccc4c3CCN2C1=O (stereo not shown) [Example 213]", "< 3.70"),
    ("COc1ccc2[nH]c3c(c2c1)CCC(C)/C3=N/N (stereo not shown) [Example 134]", 3.97),
]

*Q* Please give measured pIC50 of the following entry: COc1ccc2c(c1)c1c(n2C)C(C(=O)O)NCC1 (stereo not shown) [Example 182]
*A* < 3.70

*Q* Please give measured pIC50 of the following entry: COc1ccc2[nH]c3c(c2c1)CCNC3(CC(=O)O)C(=O)O (stereo not shown) [Example 226]
*A* < 3.70

*Q* Please give measured pIC50 of the following entry: O=C(O)C1NCCc2c1[nH]c1ccc(OCCc3ccccc3)cc21 (stereo not shown) [Example 87, hydrochloride]
*A* 4.55

*Q* Please give measured pIC50 of the following entry: O=C(O)C1NCCc2c1[nH]c1ccc(OCCCc3ccccc3)cc21 (stereo not shown) [Example 139]
*A* 3.93

*Q* Please give measured pIC50 of the following entry: NNC(=O)c1ccc2[nH]c3c(c2c1)CCNC3C(=O)O (stereo not shown) [Example 107]
*A* 4.31

*Q* Please give measured pIC50 of the following entry: COC1=C(C#N)Cc2c([nH]c3ccc(OC)cc23)C(=O)N1 [Example 269]
*A* < 3.70

*Q* Please give measured pIC50 of the following entry: COc1ccc2[nH]c3c(c2c1)CCN(C(=O)OCc1ccccc1)C3C(=O)O (stereo not shown) [Example 219]
*A* < 3.70

*Q* Please give measured pIC50 of the following entry: COc1ccc2[nH]c3c(c2c1)CCN1C(=O)CCC31C(=O)O (stereo not shown) [Example 163]
*A* < 3.70

---

# assay.system: MK-2 (Homo sapiens)
# assay.protocol: Determination of MK-2 IC50 (phosphorylation of HSP-peptide, anion exchange resin capture assay)
# Assay type: biochemical
# condition.parameters: additional values are replicate IC50 experiments; mixture of stereoisomers implied unless otherwise noted; read-out: MK-2 Avg. IC50
Structures can show the parent of a compound that is named as a salt.
parameter.measured: IC50 (µM)
Please reply with the bare figure in µM and do not write the unit itself.

Field: example entries. Status: answers known.
# molecule, measure.unit, IC50
data = [
    ("COCCOc1ccc2[nH]c3c(c2c1)CCNC3C(=O)O (centres unmarked)", "µM", 110),
    ("COc1ccc2[nH]c3c(c2c1)CC(CCCNCc1ccccc1)NC3=O (centres unmarked) [Example 62, trifluoroacetate]", "µM", 10.5),
    ("COC(=O)C1c2[nH]c3ccc(O)cc3c2CCN1C (centres unmarked) [Example 129]", "µM", 98.7),
    ("O=C(O)C1NCCc2c1[nH]c1ccc(OCCCCl)cc21 (centres unmarked) [Example 76, hydrochloride]", "µM", 16.7),
    ("ON=C1CCCc2c1[nH]c1ccc(C(F)(F)F)cc21", "µM", 156),
]

*Q* Please give measured IC50 of the following entry: O=C(O)C1NCCc2c1[nH]c1ccc(OCc3ccccn3)cc21 (centres unmarked) [Example 101, hydrochloride]
*A* 39.9

*Q* Please give measured IC50 of the following entry: O=C(O)C1NCCc2c1[nH]c1ccc(OCc3cccnc3)cc21 (centres unmarked) [Example 102, hydrochloride]
*A* 42.6

*Q* Please give measured IC50 of the following entry: COc1ccc2[nH]c3c(c2c1)C(Cc1cccc(C(F)(F)F)c1)CNC3C(=O)O (centres unmarked)
*A* 70.9

*Q* Please give measured IC50 of the following entry: COc1cc2[nH]c3c(c2cc1OC)CCCC3=NO
*A* 100

*Q* Please give measured IC50 of the following entry: COc1ccc2c3c([nH]c2c1)C(C(=O)O)NCC3 (centres unmarked) [Example 34]
*A* 4.52

*Q* Please give measured IC50 of the following entry: CCCCOc1ccc2[nH]c3c(c2c1)CCNC3C(=O)O (centres unmarked)
*A* 10.1

*Q* Please give measured IC50 of the following entry: COc1ccc2[nH]c3c(c2c1)CC(CC#N)NC3=O (centres unmarked)
*A* 68.7
